pIC50: −log10 of the molar value.
Heads up, these compounds all have pIC50 values measured for human JAK1 (aa 850-1154) (Homo sapiens).
Measurement name: pIC50

1) N#CC1(n2c(=O)[nH]c3cnc(-c4cnc5ccc(F)cn45)nc32)CCCCC1 ... < 6.00
2) O=c1[nH]c2cc(F)c(-c3cnc4ccc(F)cn34)nc2n1C1CCOCC1 ... 6.00 to 7.00
3) CS(=O)(=O)N1CCC[C@@H](n2c(=O)[nH]c3cnc(-c4cnc5ccc(F)cn45)nc32)C1 ... < 6.00
4) O=c1[nH]c2cnc(-c3cnn4cc(F)ccc34)nc2n1C1CCOCC1 ... < 6.00
5) CC1(C)CC(n2c(=O)[nH]c3cnc(-c4cnc5ccc(F)cn45)nc32)c2cccnc2O1 (stereo not drawn) ... < 6.00
6) O=c1[nH]c2cnc(-c3cnc4ccc(F)cn34)nc2n1[C@H](CO)c1ccc(F)cn1 ... 6.00 to 7.00
7) O=c1[nH]c2cnc(-c3cnn4ccncc34)nc2n1C1CCC(F)(F)CC1 ... > 7.00
8) C[C@@H]1CCCC[C@@H]1n1c(=O)[nH]c2cnc(-c3cnc4ccc(C#N)cn34)nc21 ... 6.00 to 7.00
9) O=c1[nH]c2cnc(-c3cnn4cccnc34)cc2n1C1CCOCC1 ... 6.00 to 7.00
